Recorded %Inh values for a group of compounds are listed next.
tested on: AMPK-alpha1; construct: gene PRKAA1; conditions: concentration: 1 μM, replicates: in singlicate; n = 1;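 further: KINOMEscan kinase panel screen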
Supply the numeric figure in %, leaving out any unit text.

compound: COc1cccc(NC(=O)NCCNc2ccnc(Nc3ccc(F)cc3)n2)c1
scale-unit: %
endpoint-value: 0

compound: CN(c1ccc2c(c1)nc(NCc1ccccc1)n2C)c1ccnc(Nc2ccc(CS(C)(=O)=O)cc2)n1.Cl
scale-unit: %
endpoint-value: 2

compound: Cl.N#CCc1ccc(Nc2nccc(Nc3ccc(Oc4ccccc4)cc3)n2)cc1
scale-unit: %
endpoint-value: 0

compound: Cc1ccc(O)cc1Nc1ccnc2cc(-c3ccc(CN4CCCCC4)o3)ccc12
scale-unit: %
endpoint-value: 0

compound: N#Cc1cnc2cc(-c3cnc(CNCCN4CCOCC4)s3)ccc2c1Nc1ccc(Oc2ccccc2)cc1
scale-unit: %
endpoint-value: 21

compound: CC(C)c1nc(-c2cccc(NS(=O)(=O)c3c(F)cccc3F)c2)c(-c2ccnc(Nc3ccc(N4CCOCC4)nc3)n2)s1.Cl
scale-unit: %
endpoint-value: 74

# %Inh of Cc1ccc(-c2ccc3occ(-c4ccc(S(C)=O)cc4)c3c2)nn1 (centres unmarked) = 0

# %Inh of Cn1cc(-c2ccc3c(c2)CCN3C(=O)Cc2cc(F)cc(C(F)(F)F)c2)c2c(N)ncnc21 = 3

# %Inh of COc1ccc(C)c(Nc2ccnc(Nc3ccc(-c4cnc[nH]4)cc3)n2)c1.Cl = 30

# %Inh of CN(C)CCNS(=O)(=O)c1ccc(-c2ccnc3[nH]ccc23)cc1 = 53

# %Inh of Cc1cccc(Nc2nc(NCCN)ncc2C(N)=O)c1 = 0

# %Inh of CN(c1ccc(NC(=O)N2CCN(CCCN3CCOCC3)CC2)cc1)c1ccnc(Nc2ccc(CS(C)(=O)=O)cc2)n1.Cl = 0

# %Inh of CN(C)c1ncnc2nc[nH]c12 = 0

# %Inh of CCNc1nccc(-c2c(-c3ccc(F)cc3)ncn2C2CCN(C)CC2)n1 = 0

# %Inh of COc1ccc(NC(=O)c2ccoc2)cc1-c1ccc(C(=O)NCC2CC2)cc1 = 19

# %Inh of CN(c1ccc(F)c(NC(=O)c2cccc(OC(C)(C)C#N)c2Cl)c1)c1ccc2nc(NC(=O)C3CC3)sc2n1 = 0

# %Inh of CCOc1nccc(-c2c(-c3ccc(F)cc3)ncn2C2CCNCC2)n1 = 1
